- System: Chikungunya virus
- Assay name: Antiviral activity against CHIKV infected in green monkey Vero cells assessed as reduction in viral titer at 3.125 uM pretreated the cells with viral infection for 1 hr followed by compound addition and measured after 24 hrs by Foci forming unit assay (reference value: 8.55 log10FFU/ml)
- Format: functional
Quick list: Activity per entry.
# unit: log10FFU/ml | format: bare number

Below, each entry is followed by its recorded Activity result.
COc1c(OCC(=O)N2CCN(S(=O)(=O)c3ccc(C#N)cc3)CC2)cc2oc3cc4c(c(O)c3c(=O)c2c1CC=C(C)C)C=CC(C)(C)O4    7.44
COc1c(O)cc2oc3cc4c(c(O)c3c(=O)c2c1CC=C(C)C)C=CC(C)(C)O4 [MANGOSTANIN]    6.42
COc1c(O)cc2oc3cc(O)c4c(c3c(=O)c2c1CC=C(C)C)OC(C)(C)CC4    7.39
COc1c(O)cc2oc3cc(O)c(CC=C(C)C)c(O)c3c(=O)c2c1CC=C(C)C [MANGOSTIN]    7.37

Moving on to the next compound.
Q: Consider the compound shown here: C=C(C)C1Cc2c(cc3oc4cc(O)c(OC)c(CC=C(C)C)c4c(=O)c3c2O)O1 (stereo not given) [MANGOSTENONE F] What is its recorded Activity?
Result: 7.42

---

- Assay name: Selectivity ratio of IC50 for antiviral activity against CHIKV infected in green monkey Vero cells assessed as reduction in viral titer pretreated the cells with viral infection for 1 hr followed by compound addition and measured after 24 hrs by Foci forming unit assay to CC50 for cytotoxicity against green monkey Vero cells
- Type: toxicity, cell-based
Values of selectivity ratio at 24 h strictly less than 20 map to Criterion met, and values of at least 20 map to Criterion not met.

COc1c(OCC#Cc2ccc(C(C)=O)cc2)cc2oc3cc4c(c(O)c3c(=O)c2c1CC=C(C)C)C=CC(C)(C)O4    Criterion not met
COc1c(OCC(=O)N2CCN(S(=O)(=O)c3ccc(F)cc3)CC2)cc2oc3cc4c(c(O)c3c(=O)c2c1CC=C(C)C)C=CC(C)(C)O4    Criterion met
COc1c(OCc2cn(-c3ccc(Cl)cc3)nn2)cc2oc3cc4c(c(O)c3c(=O)c2c1CC=C(C)C)C=CC(C)(C)O4    Criterion not met

Q: Consider CC(C)=CCc1c(O)cc2oc3cc(O)c4c(c3c(=O)c2c1O)CCC(C)(C)O4 . Does its selectivity ratio at 24 h lie strictly below 20?
Result: Criterion met

Q: I wonder whether Oc1cc(O)c2c(c1)O[C@@H](c1ccc(O)c(O)c1)[C@@H](O)C2 [(+)-EPICATECHIN] has selectivity ratio at 24 h below 20. Can you tell?
Result: Criterion not met

Q: Consider the compound COc1c(OCC(=O)N2CCN(S(=O)(=O)c3ccc(C#N)cc3)CC2)cc2oc3cc4c(c(O)c3c(=O)c2c1CC=C(C)C)C=CC(C)(C)O4 . Is its selectivity ratio at 24 h strictly less than 20?
Result: Criterion not met

Q: Dear colleague, could you confirm whether selectivity ratio at 24 h of CC(C)=CCc1c(O)c(CC=C(C)C)c2oc3c(O)ccc(O)c3c(=O)c2c1O falls below 20? Thanks.
Result: Criterion met

Q: Please let me know if COc1c(OCC(=O)N2CCN(S(=O)(=O)c3ccc(Cl)cc3)CC2)cc2oc3cc4c(c(O)c3c(=O)c2c1CC=C(C)C)C=CC(C)(C)O4 shows selectivity ratio at 24 h below 20.
Result: Criterion met

Q: Lab note: selectivity ratio at 24 h threshold 20. Does this compound come in strictly under it? COc1c(O)cc2oc3cc4c(c(O)c3c(=O)c2c1CC=C(C)C)C=CC(C)(C)O4
Result: Criterion met

Q: Here's an entry: COc1c(OCc2cn(-c3cc(Cl)ccc3Cl)nn2)cc2oc3cc4c(c(O)c3c(=O)c2c1CC=C(C)C)C=CC(C)(C)O4 . Is its selectivity ratio at 24 h below 20?
Result: Criterion not met

Q: Is 20 strictly greater than the compound's reported selectivity ratio at 24 h? compound: COc1c(OCC(=O)N2CCN(S(=O)(=O)c3ccc(C(F)(F)F)cc3)CC2)cc2oc3cc4c(c(O)c3c(=O)c2c1CC=C(C)C)C=CC(C)(C)O4
Result: Criterion not met

Q: Check if selectivity ratio at 24 h falls below 20 for C=C(C)C1Cc2c(cc3oc4cc(O)c(OC)c(CC=C(C)C)c4c(=O)c3c2O)O1 (stereo not drawn) .
Result: Criterion met

Q: Strictly below 20: is that where selectivity ratio at 24 h of COc1c(O)cc2oc3cc(O)c4c(c3c(=O)c2c1CC=C(C)C)OC(C)(C)CC4 sits?
Result: Criterion met

Source: ChEMBL document CHEMBL6121014
